- Test system: Streptococcus salivarius
- Assay Summary: growth AUC relative to DMSO control (median of replicates) (fraction); higher = more growth (less inhibition), active = hit call of the paper
- Run Conditions: 20 µM; 24 h
Observation Type: growth AUC

>>> df
                                    molecule  observed_measurement
 0  CC1(C)C(C=C(Cl)Cl)[C@@H]1C(=O)O[C@@H](C#N)c1ccc(F)c(Oc2ccccc2)c1 (some centres not stated)                     1
 1  CCNS(=O)(=O)C(F)(F)C(F)(F)C(F)(F)C(F)(F)C(F)(F)C(F)(F)C(F)(F)C(F)(F)F                  0.96
 2  COC(=O)c1cc(Oc2ccc(Cl)cc2Cl)ccc1[N+](=O)[O-]                  1.02
 3  CCc1cnc(C2=NC(C)(C(C)C)C(=O)N2)c(C(=O)O)c1 (configuration not stated)                  1.02
 4  COc1cc(OC)nc(NC(=O)NS(=O)(=O)c2ncccc2C(=O)N(C)C)n1                 0.975
 5  C#CCN1CC(=O)N(COC(=O)C2C(C=C(C)C)C2(C)C)C1=O (mixture of isomers)                 0.943
 6             CN(C)C(=O)Nc1cccc(C(F)(F)F)c1                 0.991
 7                            COC(=O)C(Cl)Cl                 0.985
 8  CC(Oc1ccc(Oc2ccc(C(F)(F)F)cn2)cc1)C(=O)O (configuration not stated)                  0.93
 9         CNC(=O)/C(=N\OC)c1ccccc1Oc1ccccc1                 0.999
10   CCC(C)(CC)c1cc(NC(=O)c2c(OC)cccc2OC)on1                 0.979
11             CC(C)N1C(=O)c2ccccc2NS1(=O)=O                 0.978
12                               Nc1ncn[nH]1                 0.997
13  COc1cnc(OC)n2nc(NS(=O)(=O)c3c(OCC(F)F)cccc3C(F)(F)F)nc12                 0.959
14  Cc1ccccc1CO[C@@H]1C[C@@]2(C(C)C)CC[C@]1(C)O2 (mixture of isomers)                  0.97
15  ClC1=C(Cl)C2(Cl)C3C(Cl)C=CC3C1(Cl)C2(Cl)Cl (configuration not stated)                 0.928
16  CCc1cccc(C)c1N(C(=O)CCl)C(C)COC (configuration not stated)                  1.05
17  CC(Cc1ccc(C(C)(C)C)cc1)CN1CCCCC1 (configuration not stated)                     1
18  CC(Oc1cc(Cl)c(Cl)cc1Cl)C(=O)O (configuration not stated)                 0.976
19  CCC(C)Nc1c([N+](=O)[O-])cc(C(C)(C)C)cc1[N+](=O)[O-] (configuration not stated)                  1.04
20  CC1(C)CC/C(=C\c2ccc(Cl)cc2)C1(O)Cn1cncn1 (configuration not stated)                 0.993
21                      CCNc1nc(NCC)nc(SC)n1                 0.978

FYI, the data here is from the supplement of paper PMC12669032.
